Kindly state IC90 for each of the entries shown.
Test system: Septoria tritici (St)
Experiment: Growth inhibition assay of fungal pathogens, St
Type: cell-based
Conditions: Zymoseptoria tritici, 48 h, Septoria tritici; growth inhibition at 48 hours vs 2% DMSO control; read-out: Concentration at 90% Inhibition St

Ask | Look up IC90: "COc1ccc(F)cc1[C@H](Cn1c(=O)n(C(C)(C)C(=O)N2CCCC2)c(=O)c2c(C)c(-n3nccn3)sc21)OC[C@H](C)O"
Reply | > 50 µg/mL

Ask | Look up IC90: "CNC(=O)C(C)(C)n1c(=O)c2c(C)c(-n3nccn3)sc2n(C[C@H](OCCC#N)c2ccccc2OC)c1=O"
Reply | > 50 µg/mL

Ask | Look up IC90: "COc1ccccc1[C@H](Cn1c(=O)n(C(C)(C)C(N)=O)c(=O)c2c(C)c(-n3nccn3)sc21)OC1CCOCC1"
Reply | > 50 µg/mL

Ask | Look up IC90: "COc1ccc(F)cc1[C@H](Cn1c(=O)n(C(C)(C)C(=O)NC2CC2)c(=O)c2c(C)c(-n3nccn3)sc21)OC(C)C"
Reply | > 50 µg/mL

Ask | Look up IC90: "Cc1c(-n2nccn2)sc2c1c(=O)n(C(C)(C)C(=O)NC(C)C)c(=O)n2CCc1cc(F)ccc1CCCC#N"
Reply | > 50 µg/mL

Ask | Look up IC90: "COc1ccccc1[C@H](Cn1c(=O)n([C@H](C)C(=O)N(C)C(C)C)c(=O)c2c(C)c(-n3nccn3)sc21)OCCC#N"
Reply | > 50 µg/mL

Ask | Look up IC90: "COc1ccc(C#N)cc1[C@H](Cn1c(=O)n(C(C)(C)C(=O)NC(C)C)c(=O)c2c(C)c(-n3nccn3)sc21)OCC(C)(C)C#N"
Reply | > 50 µg/mL

Ask | Look up IC90: "COc1ccc(F)cc1[C@H](Cn1c(=O)n(C(C)(C)C(=O)NC(C)C)c(=O)c2c(C)c(-n3nccn3)sc21)OC[C@H](C)C#N"
Reply | > 50 µg/mL

Ask | Look up IC90: "COc1ccc(F)cc1[C@H](Cn1c(=O)n(C(C)(C)C(=O)NC(C)C)c(=O)c2c(C)c(-n3nccn3)sc21)OCCC(N)=O"
Reply | > 50 µg/mL

Ask | Look up IC90: "COc1ccc(F)cc1[C@@H](O)Cn1c(=O)n([C@H](C)C(=O)N2CCCC2)c(=O)c2c(C)c(-n3nccn3)sc21"
Reply | > 50 µg/mL

Ask | Look up IC90: "CCc1ccc(F)cc1[C@H](Cn1c(=O)n(C(C)(C)C(=O)NC(C)C)c(=O)c2c(C)c(-n3nccn3)sc21)OCC(C)(C)C#N"
Reply | > 50 µg/mL

Ask | Look up IC90: "CCc1ccc(F)cc1[C@H](Cn1c(=O)n(C(C)(C)C(=O)NC(C)C)c(=O)c2c(C)c(-n3nccn3)sc21)OCCO"
Reply | 2 µg/mL

Ask | Look up IC90: "COc1ccccc1[C@@H](O)Cn1c(=O)n(C(C)(C)C(N)=O)c(=O)c2c(C)c(-n3nccn3)sc21"
Reply | > 50 µg/mL
